Each entry below carries its reported GI50.
- Test system: HOP-92
- test description: Growth inhibition of human HOP92 cells after 48 hrs by sulforhodamine B assay
- Assay type: functional, cell-based
- condition notes: HOP-92, 48 h
# include the unit after the value

Below: 4 compounds and their reported GI50.
COc1cc(-c2nn(-c3cccc(NC(=O)c4ccc(N5CCOCC5)c(C(F)(F)F)c4)c3)cc2-c2ccncc2)ccc1Cl 124 nM
O=C(Nc1cccc(-n2cc(-c3ccncc3)c(-c3ccc(Cl)c(O)c3)n2)c1)Nc1cc(C(F)(F)F)cc(C(F)(F)F)c1 344 nM
O=C(Nc1cccc(-n2cc(-c3ccncc3)c(-c3ccc(Cl)c(O)c3)n2)c1)Nc1ccc(Cl)c(C(F)(F)F)c1 376 nM
COc1cc(-c2nn(-c3cccc(NC(=O)c4cccc(C(F)(F)F)c4)c3)cc2-c2ccncc2)ccc1Cl 555 nM

Give the measured GI50 of O=C(Nc1cccc(-n2cc(-c3ccncc3)c(-c3ccc(Cl)c(O)c3)n2)c1)c1ccc(N2CCOCC2)c(C(F)(F)F)c1 .
555 nM

---

- Tested on: SK-MEL-2
- test description: Growth inhibition of human SK-MEL-2 cells after 48 hrs by sulforhodamine B assay
- Assay type: functional
- condition notes: SK-MEL-2, 48 h
recorded endpoint: LC50 (50% lethal concentration) (µM)
Number only, in µM; omit the unit.

Below: 2 compounds and their reported LC50 (50% lethal concentration).
O=C(Nc1cccc(-n2cc(-c3ccncc3)c(-c3ccc(Cl)c(O)c3)n2)c1)Nc1ccc(Cl)c(C(F)(F)F)c1 5.84
O=C(Nc1cccc(-n2cc(-c3ccncc3)c(-c3ccc(Cl)c(O)c3)n2)c1)Nc1cc(C(F)(F)F)cc(C(F)(F)F)c1 14.1

Kindly review the next compound as well.
Give the measured LC50 (50% lethal concentration) of COc1cc(-c2nn(-c3cccc(NC(=O)Nc4cccc(C(F)(F)F)c4)c3)cc2-c2ccncc2)ccc1Cl .
3.96

---

- System: ACHN
- test description: Growth inhibition of human ACHN cells after 48 hrs by sulforhodamine B assay
- Type: functional
Each entry below carries its reported GI50.
# include the unit after the value

Below: 3 compounds and their reported GI50.
O=C(Nc1cccc(-n2cc(-c3ccncc3)c(-c3ccc(Cl)c(O)c3)n2)c1)Nc1ccc(Cl)c(Cl)c1 1040 nM
COc1cc(-c2nn(-c3cccc(NC(=O)Nc4ccc(Cl)c(Cl)c4)c3)cc2-c2ccncc2)ccc1Cl 1000 nM
COc1cc(-c2nn(-c3cccc(NC(=O)c4ccc(Cl)c(C(F)(F)F)c4)c3)cc2-c2ccncc2)ccc1Cl 2730 nM

Form entry - test system: ACHN; read-out: GI50; compound: COc1cc(-c2nn(-c3cccc(NC(=O)c4ccc(N5CCOCC5)c(C(F)(F)F)c4)c3)cc2-c2ccncc2)ccc1Cl
564 nM

---

Each entry below carries its reported growth at 10 µM.
- Test system: MDA-MB-231
- test description: Growth inhibition of human MDA-MB-231 cells assessed as cell growth at 10 uM after 48 hrs by sulforhodamine B assay
- Type: functional
- condition notes: MDA-MB-231, 48 h, read-out: Activity
# include the unit after the value

COc1cc(-c2nn(-c3cccc(NC(=O)Nc4ccc(Cl)c(C(F)(F)F)c4)c3)cc2-c2ccncc2)ccc1Cl -52.4%

Give the measured growth at 10 µM of O=C(Nc1cccc(-n2cc(-c3ccncc3)c(-c3ccc(Cl)c(O)c3)n2)c1)Nc1ccc(Cl)c(Cl)c1 .
-0.72%

Give the measured growth at 10 µM of COc1cc(-c2nn(-c3cccc(NC(=O)c4ccc(N5CCOCC5)c(C(F)(F)F)c4)c3)cc2-c2ccncc2)ccc1Cl .
-25.2%

Give the measured growth at 10 µM of COc1cc(-c2nn(-c3cccc(NC(=O)Nc4ccccc4)c3)cc2-c2ccncc2)ccc1Cl .
88%

Give the measured growth at 10 µM of COc1cc(-c2nn(-c3cccc(NC(=O)c4ccc(Cl)c(C(F)(F)F)c4)c3)cc2-c2ccncc2)ccc1Cl .
25.8%

Give the measured growth at 10 µM of COc1cc(-c2nn(-c3cccc(NC(=O)Nc4cc(C(F)(F)F)cc(C(F)(F)F)c4)c3)cc2-c2ccncc2)ccc1Cl .
-92%

---

Each entry below carries its reported GI50.
- Test system: BT-549
- test description: Growth inhibition of human BT549 cells after 48 hrs by sulforhodamine B assay
- Type: functional
- condition notes: BT-549, 48 h
Number only, in nM; omit the unit.

Below: 3 compounds and their reported GI50.
COc1cc(-c2nn(-c3cccc(NC(=O)c4ccccc4)c3)cc2-c2ccncc2)ccc1Cl 1330
O=C(Nc1cccc(-n2cc(-c3ccncc3)c(-c3ccc(Cl)c(O)c3)n2)c1)Nc1ccc(Cl)c(Cl)c1 1700
O=C(Nc1cccc(-n2cc(-c3ccncc3)c(-c3ccc(Cl)c(O)c3)n2)c1)Nc1cc(C(F)(F)F)cc(C(F)(F)F)c1 1090

Kindly review the next compound as well.
Form entry - test system: BT-549; read-out: GI50; compound: COc1cc(-c2nn(-c3cccc(NC(=O)Nc4ccc(Cl)c(Cl)c4)c3)cc2-c2ccncc2)ccc1Cl
1680

---

- System: NCI-H522
- test description: Growth inhibition of human NCI-H522 cells assessed as cell growth at 5X10'-9 M after 48 hrs by sulforhodamine B assay
- Type: functional
- condition notes: NCI-H522, 48 h, read-out: Activity
recorded endpoint: growth at 0.005 µM
# include the unit after the value

Below: 3 molecules and their reported growth at 0.005 µM.
O=C(Nc1cccc(-n2cc(-c3ccncc3)c(-c3ccc(Cl)c(O)c3)n2)c1)Nc1cc(C(F)(F)F)cc(C(F)(F)F)c1 101%
COc1cc(-c2nn(-c3cccc(NC(=O)Nc4ccc(Cl)c(Cl)c4)c3)cc2-c2ccncc2)ccc1Cl 101%
COc1cc(-c2nn(-c3cccc(NC(=O)Nc4cc(C(F)(F)F)cc(C(F)(F)F)c4)c3)cc2-c2ccncc2)ccc1Cl 102%

Give the measured growth at 0.005 µM of COc1cc(-c2nn(-c3cccc(NC(=O)Nc4cccc(C(F)(F)F)c4)c3)cc2-c2ccncc2)ccc1Cl .
95%

---

- test description: Growth inhibition of human Hs 578T cells after 48 hrs by sulforhodamine B assay
- Format: functional
recorded endpoint: GI50 (µM)
Number only, in µM; omit the unit.

COc1cc(-c2nn(-c3cccc(NC(=O)Nc4cc(C(F)(F)F)cc(C(F)(F)F)c4)c3)cc2-c2ccncc2)ccc1Cl 1.04
COc1cc(-c2nn(-c3cccc(NC(=O)c4ccc(N5CCOCC5)c(C(F)(F)F)c4)c3)cc2-c2ccncc2)ccc1Cl 0.262
COc1cc(-c2nn(-c3cccc(NC(=O)c4ccccc4)c3)cc2-c2ccncc2)ccc1Cl 1.11
O=C(Nc1cccc(-n2cc(-c3ccncc3)c(-c3ccc(Cl)c(O)c3)n2)c1)Nc1ccc(Cl)c(Cl)c1 0.785
COc1cc(-c2nn(-c3cccc(NC(=O)Nc4ccc(Cl)c(C(F)(F)F)c4)c3)cc2-c2ccncc2)ccc1Cl 1.32

Give the measured GI50 of COc1cc(-c2nn(-c3cccc(NC(=O)c4ccc(Cl)c(C(F)(F)F)c4)c3)cc2-c2ccncc2)ccc1Cl .
2.17

---

- Tested on: MCF7
- test description: Growth inhibition of human MCF7 cells after 48 hrs by sulforhodamine B assay
- Type: functional
- condition notes: MCF7, 48 h
Each entry below carries its reported LC50.

Below: 3 compounds and their reported LC50.
COc1cc(-c2nn(-c3cccc(NC(=O)Nc4cccc(C(F)(F)F)c4)c3)cc2-c2ccncc2)ccc1Cl > 50 µM
O=C(Nc1cccc(-n2cc(-c3ccncc3)c(-c3ccc(Cl)c(O)c3)n2)c1)Nc1ccc(Cl)c(Cl)c1 > 32.5 µM
O=C(Nc1cccc(-n2cc(-c3ccncc3)c(-c3ccc(Cl)c(O)c3)n2)c1)Nc1cccc(C(F)(F)F)c1 > 32.5 µM

Give the measured LC50 of O=C(Nc1cccc(-n2cc(-c3ccncc3)c(-c3ccc(Cl)c(O)c3)n2)c1)c1ccc(N2CCOCC2)c(C(F)(F)F)c1 .
> 50 µM

---

- Tested on: SF-539
- test description: Growth inhibition of human SF539 cells assessed as cell growth at 5X10'-7 M after 48 hrs by sulforhodamine B assay
- Assay type: functional
- condition notes: SF-539, 48 h, read-out: Activity
recorded endpoint: growth at 0.5 µM (%)
Number only, in %; omit the unit.

COc1cc(-c2nn(-c3cccc(NC(=O)Nc4cccc(C(F)(F)F)c4)c3)cc2-c2ccncc2)ccc1Cl 79
O=C(Nc1cccc(-n2cc(-c3ccncc3)c(-c3ccc(Cl)c(O)c3)n2)c1)c1ccc(N2CCOCC2)c(C(F)(F)F)c1 73
COc1cc(-c2nn(-c3cccc(NC(=O)c4cccc(C(F)(F)F)c4)c3)cc2-c2ccncc2)ccc1Cl 81

Kindly review the next compound as well.
Form entry - test system: SF-539; read-out: growth at 0.5 µM; compound: COc1cc(-c2nn(-c3cccc(NC(=O)Nc4cc(C(F)(F)F)cc(C(F)(F)F)c4)c3)cc2-c2ccncc2)ccc1Cl
85

Where do these numbers come from? They come from ChEMBL document CHEMBL2440076.
